Entries annotated with measured binding signal
# target or test system: T1, UNK ZnF1-3 (human, UniProt Q9C0B0 31-174)
# T1 sequence: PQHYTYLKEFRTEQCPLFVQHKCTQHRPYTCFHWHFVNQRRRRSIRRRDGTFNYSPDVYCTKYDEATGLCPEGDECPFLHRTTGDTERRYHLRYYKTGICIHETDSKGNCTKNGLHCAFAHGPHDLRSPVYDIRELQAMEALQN
# measurement notes: nsRBNS (natural sequence RNA bind-n-seq); RBNS binding buffer (assumed for nsRBNS): 25 mM Tris pH 7.5, 150 mM KCl, 3 mM MgCl2, 0.01% Triton X-100, 500 ug/ml BSA, 20 U/ml SUPERase-In, 4 C; UNK is unkempt and MSI1 is Musashi-1; names of the RNAs are library labels; protein concentration not given here; high values mean tight binding
Whole data set: some 24,000 sequences, median “enrichment r” near 0.99, cut for the highest 2% near 3.7. Many of the other results were omitted from the sample, so the highest values are more common in it than they were.
measured quantity: binding signal (enrichment R)

>>> result_value("chr6:30692278:30692279:+_ENSG00000196230_ENST00000327892|hu_hu|FALSE|FALSE (ssRNA) RNA: GGGAGUUCUACAGUCCGACGAUCCCAGAGUGGAAAGAGAGAGGAGACAUUCAACAAACAAGUAUUUAUUGAGCGCCUACUAUGUGCCAGGCACUGUUCUAGACCCCCCCCAGAAGAAAAAACAAAAAACAAGAUAGAGGCAGCCAACAGAGGAUUGAGCAUCA")
2.28
>>> result_value("105885974_105886094_2527_3pUTR_ENSG00000135966_ENST00000393359|human|control|control (ssRNA) RNA: GGGAGUUCUACAGUCCGACGAUCCAGCAGCGUGUGAAAGAGUUGCUGGCGGUGGGGUGGGUCUCGGCCCUCGGAGCACCACAGGCAGUAGUCCUCGGCCGCUGCAAAGUCCUGCAGCUCGUGCACCAGGAUAUGCAGCGCCUUCAACAGAGGAUUGAGCAUCA")
0.509
>>> result_value("chr19:7991675:7991676:-_ENSG00000104980_ENST00000595831|hu_mus|motif|central (ssRNA) RNA: GGGAGUUCUACAGUCCGACGAUCAUGUACAGGAAGUAAGAGCACUGAUUUAAAAACAAAAACAAAACAAAACAAAAGGACCGGAAGUGGCUUGGAAGGCAAUGCCAGUGGACUACUUAGAACAGCAGGCCAGGCCUCACCCGACAACAGAGGAUUGAGCAUCA")
5.15
>>> result_value("chr9:14812383:14812384:-_ENSMUSG00000031934_ENSMUST00000164273|mus_mus|mus_mus_mus_hu_True|38_48 (ssRNA) RNA: GGGAGUUCUACAGUCCGACGAUCAUAGCCCAGGUAGAUACACGCUAACAGUAUAAUGAUGAGUGUCAGCAGGCGGCAGCUAAUGUAUUUCAUGAUUAAAUGACUAGAAUUUUUCUUUGUCUUCAAGUACUGCUCCACAAUUGGCAACAGAGGAUUGAGCAUCA")
1.52
>>> result_value("chr19:37063429:37063430:+_ENSMUSG00000040565_ENSMUST00000099494|mus_mus|FALSE|FALSE (ssRNA) RNA: GGGAGUUCUACAGUCCGACGAUCCAUAGCAUCCCAAAGAUGUGGCAACUUCACUGCCAUUUCAGCACCAAAAUGCUUCACUAUAGUUGUUAAGGCAAAUUCAGCUCCUCUCCGCUGUACCAGGUAAGGCUUCUGACCCUCAUCCAACAGAGGAUUGAGCAUCA")
0.992
>>> result_value("chr19:7991675:7991676:-_ENSG00000104980_ENST00000595831|hu_mus|FALSE|FALSE (ssRNA) RNA: GGGAGUUCUACAGUCCGACGAUCAUGUACAGGAAGUAAGAGCACUGAUUUAAAAACAAAAACAAAACAAAACAAAAGGACCUAAAGUGGCUUGGAAGGCAAUGCCAGUGGACUACUUAGAACAGCAGGCCAGGCCUCACCCGACAACAGAGGAUUGAGCAUCA")
5.35
>>> result_value("chr4:95690885:95690886:+_ENSMUSG00000028572_ENSMUST00000156910|mus_mus|mus_mus_mus_hu_False|1_8 (ssRNA) RNA: GGGAGUUCUACAGUCCGACGAUCUUUAGAAAAUGUUAAAUACCAUGCUAAAAUAUUUUCAAAGGCUUAUUUUAUUUUACCAGAAGUCACAGGCAAGCAGACACUACAAGAAUAUAUGAAAAUGAAACAACAGUGUAAAAUGUACAACAGAGGAUUGAGCAUCA")
1.97
>>> result_value("chr7:140404665:140404666:+_ENSG00000090266_ENST00000247866|hu_hu|hu_hu_hu_mus_False|1_28 (ssRNA) RNA: GGGAGUUCUACAGUCCGACGAUCUGCUCCUACUCGUCCAGAGAGUUUACAGUGUCAGUCCUCGUCAUCAGGAGGGAUUCCCAGUUCUUCAUCUGUCCACUGUGAAGGAUCAGGAUAUGAAAAGUGACCCAGCACAGCUUCUGACAACAGAGGAUUGAGCAUCA")
1.15
>>> result_value("48376308_48376428_337_CDS_ENSMUSG00000031558_ENSMUST00000170109|mouse|control|control (ssRNA) RNA: GGGAGUUCUACAGUCCGACGAUCGGGCACACUGCGCAGUGCCAGCCCAUGACAGUCCACCGUGCUGCCUGAACAGGAGCACUGGGCCGGGCACGCCUGCGGCGCCACCUUGUUCAAGAUCGACAACACUAACCCCAGCGAUAGCAACAGAGGAUUGAGCAUCA")
0.634
>>> result_value("64079182_64079302_4442_3pUTR_ENSMUSG00000025959_ENSMUST00000114086|mouse|control|control (ssRNA) RNA: GGGAGUUCUACAGUCCGACGAUCCCCACAGCCAACAAAGGACUCUGAAGCAAGCAAGCACCAUCAUGGUAUCUCAGUGCGCCCUGCUCCAAGAGAGAUCAGGAGCAGAUCACAAAGACCUCACUGAUACAAAAGAGAAAUUACCAACAGAGGAUUGAGCAUCA")
1.03
>>> result_value("chr7:141441981:141441982:+_ENSG00000106028_ENST00000265304|hu_mus|hu_hu_hu_mus_False|48_88 (ssRNA) RNA: GGGAGUUCUACAGUCCGACGAUCCUCAUGUCUUACAAACUGACGAAGUACCUGUAACACAGGUCUUCGAAACAUGGCUUCUGUUUUCUUUUCUUACUAAUCUUUAGGCUUUUCCUAAAGGAAAGAAAGAAAAGAGAAAAAUGACAACAGAGGAUUGAGCAUCA")
0.351
>>> result_value("chr14:21343309:21343310:-_ENSMUSG00000021816_ENSMUST00000161445|mus_hu|motif|central (ssRNA) RNA: GGGAGUUCUACAGUCCGACGAUCAGGAUCGGACCAUAACAAGUCACACAUUGGUCCAAAUGCAGGUGGCUCUUUGAAUCGGUCGGAUCUCCUAAUAUCAUCCAGUGUGUGUAUUUCUGGUGAAAGUCCACCAUGAACACAAAGCAACAGAGGAUUGAGCAUCA")
0.921
>>> result_value("chr2:216981417:216981418:+_ENSG00000079246_ENST00000392132|hu_hu|hu_hu_hu_mus_True|48_58 (ssRNA) RNA: GGGAGUUCUACAGUCCGACGAUCCUGAUACUGGUCCUUGCCAGCAAGGGCAUUAUCAGUGCCAUCUGUGCCAUAGAGGACUAAAGCAAUCUCAUCCUUGCUCUCCGAAAAUACCUGUCGUUGGACAAACAUAGUCAUCACUUUCAACAGAGGAUUGAGCAUCA")
0.722
